Where these numbers come from: ChEMBL document CHEMBL1133869

- test.target: Peroxisome proliferator-activated receptor alpha (Homo sapiens)
- Sequence (Q07869 whole entry, the tested form may be a part): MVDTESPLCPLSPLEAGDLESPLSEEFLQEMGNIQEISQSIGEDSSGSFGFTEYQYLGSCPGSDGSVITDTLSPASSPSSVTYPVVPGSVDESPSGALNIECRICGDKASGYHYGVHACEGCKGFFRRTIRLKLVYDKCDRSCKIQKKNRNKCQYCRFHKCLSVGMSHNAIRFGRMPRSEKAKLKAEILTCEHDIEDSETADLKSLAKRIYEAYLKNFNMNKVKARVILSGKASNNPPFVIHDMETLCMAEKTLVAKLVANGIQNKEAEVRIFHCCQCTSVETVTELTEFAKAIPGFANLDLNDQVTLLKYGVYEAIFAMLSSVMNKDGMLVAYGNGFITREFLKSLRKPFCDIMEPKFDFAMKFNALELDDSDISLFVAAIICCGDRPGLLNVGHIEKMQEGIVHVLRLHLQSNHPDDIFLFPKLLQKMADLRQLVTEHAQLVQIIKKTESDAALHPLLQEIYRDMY
- assay.summary: Maximal reporter activity against human Peroxisome proliferator activated receptor alpha Gal4 chimeric in transiently transfected CV-1 cells by functional assay.
quantity.measured: EC50
Could you kindly put the unit after your number?

EC50 in this record for Cc1oc(-c2ccccc2)nc1CCOc1ccc(C[C@@H](C(=O)O)N2CCOCC2)cc1 : 6.9 µM

---

- test.target: Peroxisome proliferator-activated receptor delta (Homo sapiens)
- Sequence (Q03181 whole entry): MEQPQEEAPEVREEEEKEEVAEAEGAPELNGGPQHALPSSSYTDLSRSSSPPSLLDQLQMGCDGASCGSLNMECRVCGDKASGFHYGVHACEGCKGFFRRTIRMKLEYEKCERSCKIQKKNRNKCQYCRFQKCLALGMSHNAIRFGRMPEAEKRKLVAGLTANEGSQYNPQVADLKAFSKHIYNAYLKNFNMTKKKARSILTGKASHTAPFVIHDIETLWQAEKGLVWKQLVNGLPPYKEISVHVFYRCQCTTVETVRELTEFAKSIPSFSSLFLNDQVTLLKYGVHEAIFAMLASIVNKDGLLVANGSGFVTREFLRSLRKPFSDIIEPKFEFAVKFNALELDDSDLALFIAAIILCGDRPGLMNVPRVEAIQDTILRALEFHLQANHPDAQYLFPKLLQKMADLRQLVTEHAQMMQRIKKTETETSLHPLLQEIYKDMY
- assay.summary: Concentration that gave 50% of maximal reporter activity against human Peroxisome proliferator activated receptor delta Gal4 chimeric in transiently transfected CV-1 cells by functional assay.
quantity.measured: pEC50
// scale note: pEC50 = -log10(conc_M); give the bare number

Query Cc1oc(-c2ccccc2)nc1CCOc1ccc(C[C@@H](C(=O)O)n2cccc2)cc1 on Peroxisome proliferator-activated receptor delta (Homo sapiens); pEC50 returned: 5.42
